Where these numbers come from: ChEMBL document CHEMBL3045586

Tested on: Candida albicans
assay-notes: Fungicidal activity against Candida albicans MTCC 227 after 3 days
Format: functional
condition-info: MTCC 227, 72 h
Provide the recorded MFC for the entries that follow.
Entry format: amount then unit.

Example results:
1. COc1ccc(-c2nnc(COc3cc(=O)oc4ccccc34)[nH]2)cc1OC: 25 µg/mL
2. O=c1cc(OCc2nnc(-c3ccc(F)cc3)[nH]2)c2ccccc2o1: 12.5 µg/mL
3. COc1cc(-c2nnc(COc3cc(=O)oc4ccccc34)[nH]2)cc(OC)c1OC: 25 µg/mL

Dear colleague, could you please provide MFC for the molecules listed below?
1. COc1cc(-c2nnc(COc3cc(=O)oc4ccccc34)[nH]2)ccc1O
2. O=c1cc(OCc2nnc(-c3ccco3)[nH]2)c2ccccc2o1
3. O=c1cc(OCc2nnc(-c3cccs3)[nH]2)c2ccccc2o1

1: 12.5 µg/mL; 2: 25 µg/mL; 3: 12.5 µg/mL

====

Tested on: Bacillus subtilis
assay-notes: Antibacterial activity against Bacillus subtilis MTCC 441 after 16 to 18 hr by serial dilution method
Assay type: functional
experimental-readout: MIC (µg/mL)
One number for each entry, in µg/mL.

Example results:
1. O=c1cc(OCc2nnc(-c3ccc(Br)cc3)[nH]2)c2ccccc2o1: 12.5
2. COc1cc(-c2nnc(COc3cc(=O)oc4ccccc34)[nH]2)ccc1O: 12.5
3. O=c1cc(OCc2nnc(-c3ccc(O)cc3)[nH]2)c2ccccc2o1: 50
4. O=c1cc(OCc2nnc(-c3ccco3)[nH]2)c2ccccc2o1: 50
5. COc1ccc(-c2nnc(COc3cc(=O)oc4ccccc34)[nH]2)cc1OC: 25
6. O=c1cc(OCc2nnc(-c3cccs3)[nH]2)c2ccccc2o1: 12.5
7. O=c1cc(OCc2nnc(-c3ccc(F)cc3)[nH]2)c2ccccc2o1: 50

Attention now shifts to the item below.
Provide MIC value for the following compound: Cc1ccc(-c2nnc(COc3cc(=O)oc4ccccc34)[nH]2)cc1
12.5

====

Test system: Aspergillus flavus
assay-notes: Antifungal activity against Aspergillus flavus MTCC 277 after 28 to 30 hr by serial dilution method
Format: functional
Provide the recorded MIC for the entries that follow.
One number for each entry, in µg/mL.

1. O=c1cc(OCc2nnc(-c3ccc(Br)cc3)[nH]2)c2ccccc2o1: 12.5
2. O=c1cc(OCc2nnc(-c3cccs3)[nH]2)c2ccccc2o1: 12.5
3. O=c1cc(OCc2nnc(-c3ccccc3)[nH]2)c2ccccc2o1: 12.5

Dear colleague, could you please provide MIC for the compounds listed below?
1. O=c1cc(OCc2nnc(-c3ccco3)[nH]2)c2ccccc2o1
2. COc1cc(-c2nnc(COc3cc(=O)oc4ccccc34)[nH]2)ccc1O
3. O=c1cc(OCc2nnc(-c3ccc(Cl)cc3)[nH]2)c2ccccc2o1
4. Cc1ccc(-c2nnc(COc3cc(=O)oc4ccccc34)[nH]2)cc1
5. Clc1ccc(COC(Cn2ccnc2)c2ccc(Cl)cc2Cl)c(Cl)c1 (stereo not drawn)

1: 12.5; 2: 25; 3: 12.5; 4: 25; 5: 6.25

====

Provide the recorded MBC for the entries that follow.
Test system: Escherichia coli
assay-notes: Bactericidal against Escherichia coli MTCC 443 after 3 days
Assay type: functional
condition-info: MTCC 443, 72 h
One number for each entry, in µg/mL.

Example results:
1) O=c1cc(OCc2nnc(-c3ccc(F)cc3)[nH]2)c2ccccc2o1: 25
2) O=c1cc(OCc2nnc(-c3ccco3)[nH]2)c2ccccc2o1: 12.5
3) COc1cc(-c2nnc(COc3cc(=O)oc4ccccc34)[nH]2)cc(OC)c1OC: 25

Attention now shifts to the item below.
Provide MBC value for the following compound: COc1cc(-c2nnc(COc3cc(=O)oc4ccccc34)[nH]2)ccc1O
12.5

====

Tested on: Staphylococcus epidermidis; note: test concentration or dose not given here
Format: functional, MTCC 435
experimental-readout: inhibition zone (IZ) (mm)
Answers are plain numbers, in mm.

Dear colleague, could you please provide inhibition zone (IZ) for the compounds listed below?
1. O=c1cc(OCc2nnc(-c3ccc(O)cc3)[nH]2)c2ccccc2o1
2. O=C(O)c1cn(C2CC2)c2cc(N3CCNCC3)c(F)cc2c1=O

1. 11
2. 15

====

System: Aspergillus fumigatus
assay-notes: Antifungal activity against Aspergillus fumigatus MTCC 343 after 28 to 30 hr by serial dilution method
Assay type: functional
Provide the recorded MIC for the entries that follow.
Entry format: amount then unit.

Example results:
1) O=c1cc(OCc2nnc(-c3ccccc3)[nH]2)c2ccccc2o1: 12.5 µg/mL
2) COc1cc(-c2nnc(COc3cc(=O)oc4ccccc34)[nH]2)ccc1O: 12.5 µg/mL

Attention now shifts to the item below.
Provide MIC value for the following compound: O=c1cc(OCc2nnc(-c3ccc(Cl)cc3)[nH]2)c2ccccc2o1
25 µg/mL
